# Test system: PC-3 prostate
# test description: NCI-60 one-dose screen, 48 h (100 = growth as untreated, 0 = no growth, -100 = all killed)
# measurement setup: 10 µM unless noted
The panel holds about 83,000 compounds, 20% with a hit somewhere; the sample as a whole holds those more often.
Friendly reminder: growth below 40% is satisfied, at or above is not satisfied.

* C1CCC([PH+](C2CCCCC2)C2CCCCC2[PH+](C2CCCCC2)C2CCCCC2)CC1.[Au].[CH-]1CCCCC1C1CCCC[N-]1 (stereo not given) | satisfied
* COC1=CC(c2ccc[nH]2)=N/C1=C\c1[nH]c(C)c(C(=O)OC(C)C)c1C | satisfied
* COc1ccc(C2=C(Nc3ccc(C(=O)Nc4ccccc4)cc3)C(=O)N(C)C2=O)cc1 | not satisfied
* NNc1nc(-c2cccnc2)nc2c1sc(=S)n2-c1ccccc1 | not satisfied
* Nc1ncc(-c2ccc3ncnc(Nc4cccc(Cl)c4)c3c2)cn1 | satisfied
